- System: 439559-082-T-J2-PDC spheroid viability;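 also: spheroids exposed to compounds for seven days before readout; 100% = DMSO vehicle control viability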
- assay info: Anticancer human tumor 439559-082-T-J2-PDC patient-derived colon adenocarcinoma cell line growth inhibition [POLQ]
- condition context: second compound 0.0316 µM; first compound 3.16 µM; stronger effect = lower value; spheroids with HUVEC and MSC
endpoint name: viability, T/C (%)
Quick note: give the figure in %, leave out the unit.

Some compounds with known viability, T/C results, for comparison:
Nc1ccn(C2OC(CO)C(O)C2(F)F)c(=O)n1 (stereo unspecified) + Cc1cccc(N(C)C(=O)C2C(O)CCN2c2nc(C)cc(C(F)(F)F)c2C#N)c1 :: 37.5
CC(C)n1c(=O)n(C)c2cnc3cc(F)c(-c4ccc(OCCCN5CCCCC5)nc4)cc3c21 + Cc1cccc(N(C)C(=O)C2C(O)CCN2c2nc(C)cc(C(F)(F)F)c2C#N)c1 :: 99.8
O=C(c1cc(Cc2n[nH]c(=O)c3ccccc23)ccc1F)N1CCN(C(=O)C2CC2)CC1 + Nc1ccc(C#CCN(C(=O)Cc2ncc(C(F)(F)F)cc2C(F)(F)F)c2ccc(F)cc2)nn1 :: 94.3
COc1cc2cc(C(=O)CCC(=O)O)sc2cc1OC + Cc1cccc(N(C)C(=O)C2C(O)CCN2c2nc(C)cc(C(F)(F)F)c2C#N)c1 :: 100
C#Cc1c(F)ccc2cc(O)cc(-c3ncc4c(N5CC6CCC(C5)N6)nc(OCC56CCCN5CC(F)C6)nc4c3F)c12 (stereo unspecified) + Nc1ccc(C#CCN(C(=O)Cc2ncc(C(F)(F)F)cc2C(F)(F)F)c2ccc(F)cc2)nn1 :: 71.1

Query string: What value of measured viability, T/C is listed for O=C(Nc1ccc(O)c(NS(=O)(=O)c2ccc(F)cc2)c1)c1ccc(-c2ccccc2)cc1 + COC1C(OC(N)=O)C(O)C(Oc2ccc3c(O)c(NC(=O)c4ccc(O)c(CC=C(C)C)c4)c(=O)oc3c2C)OC1(C)C ?
Result string: 106

Query string: What value of measured viability, T/C is listed for CCc1cc2c(N3CCc4c(cc(Cn5ccnc5)cc4-c4cn(C)nc4C(F)(F)F)C3=O)cc(C)nc2c(OC)n1 + Nc1ccc(C#CCN(C(=O)Cc2ncc(C(F)(F)F)cc2C(F)(F)F)c2ccc(F)cc2)nn1 ?
Result string: 98.2

Query string: What value of measured viability, T/C is listed for O=C(Nc1ccc(O)c(NS(=O)(=O)c2ccc(F)cc2)c1)c1ccc(-c2ccccc2)cc1 + Nc1ccc(C#CCN(C(=O)Cc2ncc(C(F)(F)F)cc2C(F)(F)F)c2ccc(F)cc2)nn1 ?
Result string: 96.3

Query string: What value of measured viability, T/C is listed for C=CC(=O)N1CCN(c2nc(=O)n(-c3c(C)ccnc3C(C)C)c3nc(-c4c(O)cccc4F)c(F)cc23)C(C)C1 (stereo unspecified) + Nc1ccc(C#CCN(C(=O)Cc2ncc(C(F)(F)F)cc2C(F)(F)F)c2ccc(F)cc2)nn1 ?
Result string: 123

Query string: What value of measured viability, T/C is listed for C#Cc1c(F)ccc2cc(O)cc(-c3ncc4c(N5CC6CCC(C5)N6)nc(OCC56CCCN5CC(F)C6)nc4c3F)c12 (stereo unspecified) + Cc1cccc(N(C)C(=O)C2C(O)CCN2c2nc(C)cc(C(F)(F)F)c2C#N)c1 ?
Result string: 61.9

Query string: What value of measured viability, T/C is listed for O=C(c1cc(Cc2n[nH]c(=O)c3ccccc23)ccc1F)N1CCN(C(=O)C2CC2)CC1 + Cc1cccc(N(C)C(=O)C2C(O)CCN2c2nc(C)cc(C(F)(F)F)c2C#N)c1 ?
Result string: 95
